assay summary: Half life in Balb/c mouse at 10 mg/kg, iv
Format: ADME, organism-based
condition label: in vivo
quantity measured: half-life

I am curious: what half-life value has been reported for O=C(NO)c1ccc(CCCN2CCC(CN[C@H]3C[C@@H]3c3ccccc3)CC2)cc1 (racemic) ?
3.3 h

###

assay summary: Stability in mouse liver microsomes assessed as parent compound remaining measured after 30 mins
Format: ADME, Microsome
condition label: liver microsomes, read-out: Stabilty
// NB: equality with 70% counts as condition not met; only remaining at 0.5 h strictly below is condition met

O=C(NO)c1ccc(CN2CCC(CN[C@H]3C[C@@H]3c3ccccc3)CC2)cc1 (racemic)	condition met
O=C(NO)c1ccc(CCCN2CCC(CN[C@H]3C[C@@H]3c3ccc(C(=O)N4CCOCC4)cc3)CC2)cc1 (racemic)	condition not met
O=C(NO)c1coc(CCCN2CCC(CN[C@H]3C[C@@H]3c3ccccc3)CC2)n1 (racemic)	condition not met
O=C(CCCCCCNC(=O)c1cnc(N(c2ccccc2)c2ccccc2)nc1)NO	condition not met
O=C(NO)c1ccc(CCCN2CCc3cc(CN[C@H]4C[C@@H]4c4ccc(F)cc4)ccc3C2)cc1 (racemic)	condition met
O=C(NO)c1ccc(CCCN2CCC(CN[C@H]3C[C@@H]3c3ccc(-c4ccc(Cl)cc4)cc3)CC2)cc1 (racemic)	condition not met
N#Cc1ccc(-c2ccc([C@H]3C[C@@H]3NCC3CCN(CCCc4ccc(C(=O)NO)cc4)CC3)cc2)cc1 (racemic)	condition not met
CN(C)CCNC(=O)c1ccc([C@H]2C[C@@H]2NCC2CCN(CCCc3ccc(C(=O)NO)cc3)CC2)cc1 (racemic)	condition met

Bench note: check whether Cn1cc(-c2ccc([C@H]3C[C@@H]3NCC3CCN(CCCc4ccc(C(=O)NO)cc4)CC3)cc2)cn1 (racemic) shows remaining at 0.5 h below 70%
condition met

Bench note: check whether O=C(NO)c1ccc(CCCN2CCC(CN[C@H]3C[C@@H]3c3ccccc3)CC2)cc1 shows remaining at 0.5 h below 70%
condition met

Bench note: check whether O=C(NO)c1ccc(CCCN2CC(CN[C@H]3C[C@@H]3c3ccccc3)C2)cc1 (racemic) shows remaining at 0.5 h below 70%
condition met
